# Tested on: UACC-257 melanoma
# test_summary: NCI-60 one-dose screen, 48 h (100 = growth as untreated, 0 = no growth, -100 = all killed)
# experimental_setup: 10 µM unless noted
# Protocol: Cells are grown in 96 well plates and exposed to the test compound for 48 hours. Compounds are tested at a single concentration, which is 10^-5 M for most compounds. The reported endpoint is percent growth (GI% or GIPRCNT), where numbers from 0 - 100% represent growth inhibition, and numbers from -100% - 0 represent cell death. For example, a value of 40 represents 60% growth inhibition. A value of 0 means no net growth occurred over the course of the experiment. […]
About 83,000 compounds went through this panel and 20% of them were active in at least one assay; those are over-represented in the sample as a whole.
quantity_kind: growth (%)
One number for each entry, in %.

>  <compound>
CC1(C)CC(=O)C2=C(C1)N(c1ccc(OC(F)(F)F)cc1)C(N)=C(C#N)C2c1ccc(Br)cc1F (stereo unspecified)

>  <experimental_target>
UACC-257 melanoma

>  <growth [%]>
80.9

$$$$
>  <compound>
COc1ccc2c(c1)N(CCO)C1=C(C(=O)OC1)C2c1cccc(F)c1 (stereo unspecified)

>  <experimental_target>
UACC-257 melanoma

>  <growth [%]>
67.6

$$$$
>  <compound>
O=C1NC2(Nc3ccccc31)C(=O)Nc1c(Cl)cc(Cl)cc12 (stereo unspecified)

>  <experimental_target>
UACC-257 melanoma

>  <growth [%]>
110

$$$$
>  <compound>
O=C(CSc1nc2ccc([N+](=O)[O-])cc2[nH]1)Nc1ccc([N+](=O)[O-])cc1

>  <experimental_target>
UACC-257 melanoma

>  <growth [%]>
9.35

$$$$
>  <compound>
c1cc2c(ccc3[nH]c(-c4ccc5[nH]ncc5c4)c4c(c32)CCCC4)n1

>  <experimental_target>
UACC-257 melanoma

>  <growth [%]>
74.9

$$$$

Proceeding to the next compound to report its growth.
Problem: Fill blank: measured growth of the compound Nc1c(C(=O)Nc2ccccc2F)sc2nc3c(cc12)CCCC3 is ____.
Solution: 61.6
